Data origin, for the record: paper PMC8151276

Target: GALR1 (Homo sapiens, UniProt P47211)
Construct: purchased Promega (in-house HiBiT-GPCR construct library, NanoBRET)
Sequence (P47211 whole entry): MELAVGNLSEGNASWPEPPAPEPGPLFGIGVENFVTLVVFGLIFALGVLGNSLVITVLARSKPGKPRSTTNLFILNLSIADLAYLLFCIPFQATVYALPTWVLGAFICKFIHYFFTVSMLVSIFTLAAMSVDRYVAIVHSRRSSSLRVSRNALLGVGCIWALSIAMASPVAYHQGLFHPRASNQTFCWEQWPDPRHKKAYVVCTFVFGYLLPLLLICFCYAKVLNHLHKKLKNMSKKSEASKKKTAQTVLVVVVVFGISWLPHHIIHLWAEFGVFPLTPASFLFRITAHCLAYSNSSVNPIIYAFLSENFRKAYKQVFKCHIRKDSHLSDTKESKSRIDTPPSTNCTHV
Assay: NanoBRET screen HiBiT-GALR1 in HEK293
Assay type: binding
Conditions: GALR1; tracer 0.1μM
We label by threshold. Values of NanoBRET Fold Response strictly beneath 1 are True. Values of 1 and up are False.

{"COMPOUND": "CC(C)N(CC[C@H](c1ccccc1)c1cc(CCNC(=O)c2ccc(CNC(=O)CCc3ccc4n3[B-](F)(F)[N+]3=C(c5ccc[nH]5)C=CC3=C4)cc2)ccc1O)C(C)C [Tolterodine-BZ-NB590]", "TARGET ENTITY": "GALR1 (Homo sapiens, UniProt P47211)", "CLASS": "True"}
{"COMPOUND": "O=C(CCOCCOCCOCCOCCNC(=O)CCc1ccc2n1[B-](F)(F)[N+]1=C(c3ccc[nH]3)C=CC1=C2)NCCCN1CCN(C2=Nc3ccccc3Oc3ccc(Cl)cc32)CC1 [Loxapine-a-2-NB590]", "TARGET ENTITY": "GALR1 (Homo sapiens, UniProt P47211)", "CLASS": "False"}
{"COMPOUND": "CC(C)N(CC[C@H](c1ccccc1)c1cc(CCNC(=O)CCOCCOCCOCCOCCNC(=O)CCc2ccc3n2[B-](F)(F)[N+]2=C(c4ccc[nH]4)C=CC2=C3)ccc1O)C(C)C [Tolterodine-2-NB590]", "TARGET ENTITY": "GALR1 (Homo sapiens, UniProt P47211)", "CLASS": "False"}

----------
Target: FZD2 (Homo sapiens)
Construct: purchased Promega (in-house HiBiT-GPCR construct library, NanoBRET)
Sequence (Q14332 24-565): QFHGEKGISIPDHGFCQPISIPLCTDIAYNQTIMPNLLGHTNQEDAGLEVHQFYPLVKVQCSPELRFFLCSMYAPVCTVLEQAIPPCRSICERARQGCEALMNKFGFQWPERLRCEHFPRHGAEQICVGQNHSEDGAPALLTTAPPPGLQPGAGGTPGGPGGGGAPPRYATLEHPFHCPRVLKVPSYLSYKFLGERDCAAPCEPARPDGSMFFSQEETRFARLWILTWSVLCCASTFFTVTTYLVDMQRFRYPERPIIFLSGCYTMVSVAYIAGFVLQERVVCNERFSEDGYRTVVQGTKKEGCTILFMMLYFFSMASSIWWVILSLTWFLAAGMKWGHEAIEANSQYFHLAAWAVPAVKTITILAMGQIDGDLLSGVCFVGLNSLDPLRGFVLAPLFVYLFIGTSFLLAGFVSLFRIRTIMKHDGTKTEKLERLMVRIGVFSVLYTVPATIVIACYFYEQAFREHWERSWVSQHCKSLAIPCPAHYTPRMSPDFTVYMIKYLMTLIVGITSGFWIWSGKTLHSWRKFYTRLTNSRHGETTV
Assay: NanoBRET screen HiBiT-FZD2 in HEK293
Type: binding
Conditions: FZD2; tracer 0.1μM
Decision: NanoBRET Fold Response >= 1 yields criterion met, all other cases yield criterion not met.

{"COMPOUND": "O=C(CCc1ccc2n1[B-](F)(F)[N+]1=C(c3ccc[nH]3)C=CC1=C2)NCc1ccc(C(=O)NCCOCCC(=O)N[C@@H]2CC[C@@]3(O)[C@H]4Cc5ccc(O)c6c5[C@@]3(CCN4CC3CC3)[C@H]2O6)cc1 [Naltrexone-3-NB590]", "CLASS": "criterion not met"}
{"COMPOUND": "N#CN=C(NCCCOc1cccc(CN2CCCCC2)c1)NCCNC(=O)CCOCCOCCOCCOCCNC(=O)CCc1ccc2n1[B-](F)(F)[N+]1=C(c3ccc[nH]3)C=CC1=C2", "CLASS": "criterion met"}
{"COMPOUND": "O=C(CCc1ccc2n1[B-](F)(F)[N+]1=C(c3ccc[nH]3)C=CC1=C2)NCCOCCOCCNC(=O)OCCOCCN1CCN(C2=Nc3ccccc3Sc3ccccc32)CC1", "CLASS": "criterion not met"}

----------
Target: HRH4 (Homo sapiens, UniProt Q9H3N8)
Construct: purchased Promega (in-house HiBiT-GPCR construct library, NanoBRET)
Sequence (Q9H3N8 whole entry): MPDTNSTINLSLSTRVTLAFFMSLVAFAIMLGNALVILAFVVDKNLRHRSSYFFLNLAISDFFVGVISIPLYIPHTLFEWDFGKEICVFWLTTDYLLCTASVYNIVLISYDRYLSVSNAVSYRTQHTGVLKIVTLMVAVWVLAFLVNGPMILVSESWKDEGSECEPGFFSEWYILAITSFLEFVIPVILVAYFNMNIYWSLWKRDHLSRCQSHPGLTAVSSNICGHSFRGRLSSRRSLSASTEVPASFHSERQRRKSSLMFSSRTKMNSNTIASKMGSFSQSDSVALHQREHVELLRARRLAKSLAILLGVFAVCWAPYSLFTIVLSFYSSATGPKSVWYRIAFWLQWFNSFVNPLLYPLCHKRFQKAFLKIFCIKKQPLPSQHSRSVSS
Experiment: NanoBRET screen HiBiT-HRH4 in HEK293
Assay type: binding
Conditions: HRH4; tracer 0.1μM
Outcome label depends on NanoBRET Fold Response relative to 1: at/above gives 1.0, below gives 0.0.

{"MOLECULE": "CC(C)N(CC[C@H](c1ccccc1)c1cc(CCNC(=O)c2ccc(CNC(=O)CCc3ccc4n3[B-](F)(F)[N+]3=C(c5ccc[nH]5)C=CC3=C4)cc2)ccc1O)C(C)C [Tolterodine-BZ-NB590]", "CLASS": 0.0}
{"MOLECULE": "CCCn1c(=O)c2[nH]c(-c3ccc(OCC(=O)NCCNC(=O)CCOCCNC(=O)c4ccc(CNC(=O)CCc5ccc6n5[B-](F)(F)[N+]5=C(c7ccc[nH]7)C=CC5=C6)cc4)cc3)nc2n(CCC)c1=O [XAC-3-NB590]", "CLASS": 1.0}
{"MOLECULE": "Cc1nc2n(c(=O)c1CCN1CCC(c3noc4cc(F)ccc34)CC1)CCCC2OC(=O)NCCOCCOCCOCCOCCNC(=O)CCc1ccc2n1[B-](F)(F)[N+]1=C(c3ccc[nH]3)C=CC1=C2 (centres unmarked) [Risperidone-2-NB590]", "CLASS": 1.0}
{"MOLECULE": "COc1ccccc1N1CCN(CCCCN2C(=O)c3ccc(CNC(=O)CCOCCOCCOCCOCCNC(=O)CCc4ccc5n4[B-](F)(F)[N+]4=C(c6ccc[nH]6)C=CC4=C5)cc3C2=O)CC1 [NAN-190-2-NB590]", "CLASS": 0.0}
{"MOLECULE": "O=C(CCOCCOCCOCCOCCNC(=O)CCc1ccc2n1[B-](F)(F)[N+]1=C(c3ccc[nH]3)C=CC1=C2)NCCCN1CCN(C2=Nc3ccccc3Oc3ccc(Cl)cc32)CC1 [Loxapine-a-2-NB590]", "CLASS": 0.0}
{"MOLECULE": "N#CN=C(NCCCOc1cccc(CN2CCCCC2)c1)NCCNC(=O)CCOCCOCCOCCOCCNC(=O)CCc1ccc2n1[B-](F)(F)[N+]1=C(c3ccc[nH]3)C=CC1=C2 [Aminopotentidine-2-NB590]", "CLASS": 0.0}
{"MOLECULE": "COc1ccccc1N1CCN(CCCCN2C(=O)c3ccc(CNC(=O)CCOCCNC(=O)c4ccc(CNC(=O)CCc5ccc6n5[B-](F)(F)[N+]5=C(c7ccc[nH]7)C=CC5=C6)cc4)cc3C2=O)CC1 [NAN-190-3-NB590]", "CLASS": 0.0}
{"MOLECULE": "CC(C)N(CC[C@H](c1ccccc1)c1cc(CCNC(=O)CCOCCOCCOCCOCCNC(=O)CCc2ccc3n2[B-](F)(F)[N+]2=C(c4ccc[nH]4)C=CC2=C3)ccc1O)C(C)C [Tolterodine-2-NB590]", "CLASS": 1.0}
{"MOLECULE": "O=C(CCc1ccc2n1[B-](F)(F)[N+]1=C(c3ccc[nH]3)C=CC1=C2)NCc1ccc(C(=O)NCCOCCC(=O)N[C@@H]2CC[C@@]3(O)[C@H]4Cc5ccc(O)c6c5[C@@]3(CCN4CC3CC3)[C@H]2O6)cc1 [Naltrexone-3-NB590]", "CLASS": 0.0}

----------
Target: RXFP4 (Homo sapiens, UniProt Q8TDU9)
Construct: purchased Promega (in-house HiBiT-GPCR construct library, NanoBRET)
Sequence (Q8TDU9 whole entry): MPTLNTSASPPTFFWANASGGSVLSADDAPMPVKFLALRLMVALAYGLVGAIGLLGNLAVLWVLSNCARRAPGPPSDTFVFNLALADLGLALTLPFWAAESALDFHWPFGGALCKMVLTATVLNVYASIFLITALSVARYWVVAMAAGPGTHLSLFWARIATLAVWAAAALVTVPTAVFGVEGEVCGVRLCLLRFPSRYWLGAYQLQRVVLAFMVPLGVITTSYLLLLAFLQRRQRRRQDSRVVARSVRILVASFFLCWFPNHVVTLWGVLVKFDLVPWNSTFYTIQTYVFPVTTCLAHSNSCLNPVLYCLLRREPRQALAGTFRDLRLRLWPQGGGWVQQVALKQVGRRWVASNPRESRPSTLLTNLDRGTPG
Test: NanoBRET screen HiBiT-RXFP4 in HEK293
Format: binding
Conditions: RXFP4; tracer 1μM
The entries below come with measured NanoBRET Fold Response values attached.

{"QUERY SMILES": "N#CN=C(NCCCOc1cccc(CN2CCCCC2)c1)NCCNC(=O)CCOCCOCCOCCOCCNC(=O)CCc1ccc2n1[B-](F)(F)[N+]1=C(c3ccc[nH]3)C=CC1=C2", "NanoBRET Fold Response": 1.02}
{"QUERY SMILES": "O=C(CCOCCOCCOCCOCCNC(=O)CCc1ccc2n1[B-](F)(F)[N+]1=C(c3ccc[nH]3)C=CC1=C2)NCCCN1CCN(C2=Nc3ccccc3Oc3ccc(Cl)cc32)CC1", "NanoBRET Fold Response": 1.21}
{"QUERY SMILES": "CC(C)N(CC[C@H](c1ccccc1)c1cc(CCNC(=O)c2ccc(CNC(=O)CCc3ccc4n3[B-](F)(F)[N+]3=C(c5ccc[nH]5)C=CC3=C4)cc2)ccc1O)C(C)C", "NanoBRET Fold Response": 0.98}
{"QUERY SMILES": "CCCn1c(=O)c2[nH]c(-c3ccc(OCC(=O)NCCNC(=O)CCOCCNC(=O)c4ccc(CNC(=O)CCc5ccc6n5[B-](F)(F)[N+]5=C(c7ccc[nH]7)C=CC5=C6)cc4)cc3)nc2n(CCC)c1=O", "NanoBRET Fold Response": 0.96}
{"QUERY SMILES": "COc1ccccc1N1CCN(CCCCN2C(=O)c3ccc(CNC(=O)CCOCCNC(=O)c4ccc(CNC(=O)CCc5ccc6n5[B-](F)(F)[N+]5=C(c7ccc[nH]7)C=CC5=C6)cc4)cc3C2=O)CC1", "NanoBRET Fold Response": 0.90}

----------
Target: CCR4 (Homo sapiens)
Construct: purchased Promega (in-house HiBiT-GPCR construct library, NanoBRET)
Sequence (P51679 1-360): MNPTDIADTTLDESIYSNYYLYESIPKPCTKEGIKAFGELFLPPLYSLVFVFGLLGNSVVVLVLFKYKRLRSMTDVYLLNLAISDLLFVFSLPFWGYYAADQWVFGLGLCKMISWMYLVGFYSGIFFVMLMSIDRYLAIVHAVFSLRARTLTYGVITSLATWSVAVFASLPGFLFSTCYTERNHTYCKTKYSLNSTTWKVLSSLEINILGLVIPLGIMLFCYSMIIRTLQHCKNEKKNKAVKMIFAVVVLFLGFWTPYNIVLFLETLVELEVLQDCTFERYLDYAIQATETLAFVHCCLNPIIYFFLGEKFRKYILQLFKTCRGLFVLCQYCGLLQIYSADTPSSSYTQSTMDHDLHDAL
Experiment: NanoBRET screen HiBiT-CCR4 in HEK293
Assay type: binding
Settings: CCR4; tracer 1μM
The following molecules are shown together with reported NanoBRET Fold Response values.

{"MOLECULE": "COc1ccccc1N1CCN(CCCCN2C(=O)c3ccc(CNC(=O)CCOCCOCCOCCOCCNC(=O)CCc4ccc5n4[B-](F)(F)[N+]4=C(c6ccc[nH]6)C=CC4=C5)cc3C2=O)CC1 [NAN-190-2-NB590]", "TARGET ENTITY": "CCR4 (Homo sapiens)", "NanoBRET Fold Response": 1.12}
{"MOLECULE": "CCCn1c(=O)c2[nH]c(-c3ccc(OCC(=O)NCCNC(=O)CCOCCNC(=O)c4ccc(CNC(=O)CCc5ccc6n5[B-](F)(F)[N+]5=C(c7ccc[nH]7)C=CC5=C6)cc4)cc3)nc2n(CCC)c1=O [XAC-3-NB590]", "TARGET ENTITY": "CCR4 (Homo sapiens)", "NanoBRET Fold Response": 1.29}
{"MOLECULE": "O=C(CCc1ccc2n1[B-](F)(F)[N+]1=C(c3ccc[nH]3)C=CC1=C2)NCCOCCOCCNC(=O)OCCOCCN1CCN(C2=Nc3ccccc3Sc3ccccc32)CC1 [Quetiapine-a-2-NB590]", "TARGET ENTITY": "CCR4 (Homo sapiens)", "NanoBRET Fold Response": 0.94}
{"MOLECULE": "CC(C)N(CC[C@H](c1ccccc1)c1cc(CCNC(=O)c2ccc(CNC(=O)CCc3ccc4n3[B-](F)(F)[N+]3=C(c5ccc[nH]5)C=CC3=C4)cc2)ccc1O)C(C)C [Tolterodine-BZ-NB590]", "TARGET ENTITY": "CCR4 (Homo sapiens)", "NanoBRET Fold Response": 0.86}
{"MOLECULE": "Cc1cc2c(s1)Nc1ccccc1N=C2N1CCN(CCCNC(=O)CCOCCOCCOCCOCCNC(=O)CCc2ccc3n2[B-](F)(F)[N+]2=C(c4ccc[nH]4)C=CC2=C3)CC1 [Olanzapine-a-2-NB590]", "TARGET ENTITY": "CCR4 (Homo sapiens)", "NanoBRET Fold Response": 0.92}
{"MOLECULE": "CC(C)N(CC[C@H](c1ccccc1)c1cc(CCNC(=O)CCOCCOCCOCCOCCNC(=O)CCc2ccc3n2[B-](F)(F)[N+]2=C(c4ccc[nH]4)C=CC2=C3)ccc1O)C(C)C [Tolterodine-2-NB590]", "TARGET ENTITY": "CCR4 (Homo sapiens)", "NanoBRET Fold Response": 1.16}
{"MOLECULE": "N#CN=C(NCCCOc1cccc(CN2CCCCC2)c1)NCCNC(=O)CCOCCOCCOCCOCCNC(=O)CCc1ccc2n1[B-](F)(F)[N+]1=C(c3ccc[nH]3)C=CC1=C2 [Aminopotentidine-2-NB590]", "TARGET ENTITY": "CCR4 (Homo sapiens)", "NanoBRET Fold Response": 0.96}
{"MOLECULE": "O=C(CCOCCOCCOCCOCCNC(=O)CCc1ccc2n1[B-](F)(F)[N+]1=C(c3ccc[nH]3)C=CC1=C2)NCCCN1CCN(C2=Nc3ccccc3Oc3ccc(Cl)cc32)CC1 [Loxapine-a-2-NB590]", "TARGET ENTITY": "CCR4 (Homo sapiens)", "NanoBRET Fold Response": 1.19}
{"MOLECULE": "Cc1nc2n(c(=O)c1CCN1CCC(c3noc4cc(F)ccc34)CC1)CCCC2OC(=O)NCCOCCOCCOCCOCCNC(=O)CCc1ccc2n1[B-](F)(F)[N+]1=C(c3ccc[nH]3)C=CC1=C2 (centres unmarked) [Risperidone-2-NB590]", "TARGET ENTITY": "CCR4 (Homo sapiens)", "NanoBRET Fold Response": 1.22}
{"MOLECULE": "O=C(CCc1ccc2n1[B-](F)(F)[N+]1=C(c3ccc[nH]3)C=CC1=C2)NCc1ccc(C(=O)NCCOCCC(=O)N[C@@H]2CC[C@@]3(O)[C@H]4Cc5ccc(O)c6c5[C@@]3(CCN4CC3CC3)[C@H]2O6)cc1 [Naltrexone-3-NB590]", "TARGET ENTITY": "CCR4 (Homo sapiens)", "NanoBRET Fold Response": 0.97}
{"MOLECULE": "COc1ccccc1N1CCN(CCCCN2C(=O)c3ccc(CNC(=O)CCOCCNC(=O)c4ccc(CNC(=O)CCc5ccc6n5[B-](F)(F)[N+]5=C(c7ccc[nH]7)C=CC5=C6)cc4)cc3C2=O)CC1 [NAN-190-3-NB590]", "TARGET ENTITY": "CCR4 (Homo sapiens)", "NanoBRET Fold Response": 1.11}
